# assay-explanation: Toxicity liver stage against HepG2, at 10uM
# Assay type: cell-based
# Set-up: test concentration 10 uM, cell line HepG2-A16-CD81EGFP
# condition-label: human, HepG2-A16-CD81EGFP cells; read-out: INHIBITION
measured-metric: cytotoxicity at 10 µM (%)
Respond with the bare value in %.

Input line: Which cytotoxicity at 10 µM value belongs to O=C(c1ccncc1F)N1CCOC(c2cccc(O)c2)C1 (configuration not stated) ?
Output line: -4.97

Input line: Which cytotoxicity at 10 µM value belongs to COCCc1nc(CN2CC(C)(c3ccccc3)CCC2=O)no1 (configuration not stated) ?
Output line: -3.07

###

# assay-explanation: Toxicity liver stage against HepG2, at 10uM
# Type: cell-based
# Design: test concentration 10 uM, cell line HepG2-A16-CD81EGFP
# condition-label: human, HepG2-A16-CD81EGFP cells; read-out: INHIBITION
measured-metric: cytotoxicity at 10 µM (%)
Respond with the bare value in %.

- compound: "CC(=O)N(C)Cc1cccc(NC(=O)N(C)CCc2cccs2)c1"
  reading-unit: "%"
  value: -2.67
- compound: "Cc1ccc(S(=O)(=O)c2ncccc2CN2CCN(C)CC2)cc1"
  reading-unit: "%"
  value: -51.3
- compound: "Cc1csc(N2CCCN(C(=O)Cc3cccs3)CC2)n1"
  reading-unit: "%"
  value: -6.87
- compound: "Cc1cccc(CNCC2COC3(CCCCC3)O2)c1C (stereo unspecified)"
  reading-unit: "%"
  value: -139
- compound: "Cc1cc(O)c(OCC(=O)/N=c2\\[nH]c(C)c(C)s2)cn1"
  reading-unit: "%"
  value: 8.6

# ---- query compound ----
Input line: Which cytotoxicity at 10 µM value belongs to CC(C)Oc1ccc(Cl)c(C(=O)N2CCN(CCO)CC2)n1 ?
Output line: -3.82

###

# assay-explanation: Toxicity liver stage against HepG2, at 10uM
# Type: cell-based
# Set-up: test concentration 10 uM, cell line HepG2-A16-CD81EGFP
# condition-label: human, HepG2-A16-CD81EGFP cells; read-out: INHIBITION
measured-metric: cytotoxicity at 10 µM (%)
Respond with the bare value in %.

Below, 5 compounds whose answers are already recorded.
- compound: "N#Cc1cccc(CN2CCCC2Cn2cccn2)c1 (configuration not stated)"
  reading-unit: "%"
  cytotoxicity at 10 µM: -2.78
- compound: "CCc1nc(NC2CCCN(C(=O)C3CC3)C2)c2cnn(C)c2n1 (configuration not stated)"
  reading-unit: "%"
  cytotoxicity at 10 µM: -1.05
- compound: "O=C(Nc1ccc(F)cc1F)N(CCC(F)(F)F)C[C@H](O)CO"
  reading-unit: "%"
  cytotoxicity at 10 µM: -7.64
- compound: "CCOCC(=O)NC(C)c1cc(C)ccc1C (configuration not stated)"
  reading-unit: "%"
  cytotoxicity at 10 µM: 5.6
- compound: "CN(C)S(=O)(=O)NCC(O)c1cc2ccccc2s1 (configuration not stated)"
  reading-unit: "%"
  cytotoxicity at 10 µM: -13.2

Input line: Which cytotoxicity at 10 µM value belongs to CC(CN1CCOCC1)NC(=O)c1cccc2cn[nH]c12 (configuration not stated) ?
Output line: -7.18

Input line: Which cytotoxicity at 10 µM value belongs to COc1c(C)cnc(CN2CCC(C(=O)N(C)C)CC2)c1C ?
Output line: -12.6

Input line: Which cytotoxicity at 10 µM value belongs to Cn1cnc2c1C(COCC1CCOCC1)CN(C(=O)c1ccco1)C2 (configuration not stated) ?
Output line: -75.5

###

# assay-explanation: Toxicity liver stage against HepG2, at 10uM
# Assay type: cell-based
# Set-up: test concentration 10 uM, cell line HepG2-A16-CD81EGFP
# condition-label: human, HepG2-A16-CD81EGFP cells; read-out: INHIBITION
measured-metric: cytotoxicity at 10 µM (%)
Respond with the bare value in %.

- compound: "CN(C)CCN1CCOCC2(CCN(Cc3ccc[nH]3)CC2)C1"
  measured-metric: "cytotoxicity at 10 µM"
  reading-unit: "%"
  value: 0.626
- compound: "O=C(O)[C@@H]1CN(C(=O)c2ccc(Cl)cc2)C[C@H]1c1cccc(F)c1"
  measured-metric: "cytotoxicity at 10 µM"
  reading-unit: "%"
  value: -132
- compound: "O=C1COC2(CCN(c3ccccn3)CC2)CN1Cc1ccccn1"
  measured-metric: "cytotoxicity at 10 µM"
  reading-unit: "%"
  value: -0.861
- compound: "CC(NCc1ccccn1)c1cc2c(cc1Br)OCCO2 (centres undefined)"
  measured-metric: "cytotoxicity at 10 µM"
  reading-unit: "%"
  value: 2.65
- compound: "CCc1noc(C2CC(=O)N(CCN(C)C)C2)n1 (centres undefined)"
  measured-metric: "cytotoxicity at 10 µM"
  reading-unit: "%"
  value: -10.1
- compound: "Cc1n[nH]c(C)c1CCN(C)C(=O)c1ccc(CN2CCCCC2)cc1"
  measured-metric: "cytotoxicity at 10 µM"
  reading-unit: "%"
  value: -9.9
- compound: "CC(=O)Nc1nc(C(=O)N2CCCC2c2ccccc2C)cs1 (centres undefined)"
  measured-metric: "cytotoxicity at 10 µM"
  reading-unit: "%"
  value: -2.27
- compound: "COc1ccc(CN2C[C@H]3CCC[C@@H](CN(C)C4CC4)[C@H]3C2)cn1"
  measured-metric: "cytotoxicity at 10 µM"
  reading-unit: "%"
  value: 4.56

Input line: Which cytotoxicity at 10 µM value belongs to CNC(=O)C1(CCCc2ccccn2)CN(Cc2scnc2C)C1 ?
Output line: 18

Input line: Which cytotoxicity at 10 µM value belongs to CCOc1ncnc2c1CCN(C(=O)NCc1cccnc1)CC2 ?
Output line: -127

###

# assay-explanation: Toxicity liver stage against HepG2, at 10uM
# Assay type: cell-based
# Parameters: test concentration 10 uM, cell line HepG2-A16-CD81EGFP
# condition-label: human, HepG2-A16-CD81EGFP cells; read-out: INHIBITION
measured-metric: cytotoxicity at 10 µM (%)
Respond with the bare value in %.

- compound: "Cn1cc(-c2nc(C3CCN(S(C)(=O)=O)CC3)cc3c2ncn3C)cn1"
  reading-unit: "%"
  cytotoxicity at 10 µM: 1.39
- compound: "CC(C)c1nn(C)c(Cl)c1CNCC(=O)N1CCN(C)CC1"
  reading-unit: "%"
  cytotoxicity at 10 µM: 2.2
- compound: "COc1cccc(N2CC3(CCN(Cc4nccn4C)C3)CC2=O)c1 (centres undefined)"
  reading-unit: "%"
  cytotoxicity at 10 µM: -83
- compound: "Cc1ccc(N2CCCC(NCc3ccc4c(c3)OCCO4)C2)nn1 (centres undefined)"
  reading-unit: "%"
  cytotoxicity at 10 µM: -20.1
- compound: "Cn1nnc(NCc2ccc(-c3ccc(Br)cc3)o2)n1"
  reading-unit: "%"
  cytotoxicity at 10 µM: -11.1
- compound: "CC(C)NC(=O)[C@@H]1C[C@H]2OCC[C@H]2N(Cc2ccc3ccccc3n2)C1"
  reading-unit: "%"
  cytotoxicity at 10 µM: -66.8

Input line: Which cytotoxicity at 10 µM value belongs to O=C(c1ccoc1)N1Cc2cnn(CC3CC3)c2C(COCC2CC2)C1 (centres undefined) ?
Output line: -6.98

###

Consider the following compounds and their measured cytotoxicity at 10 µM readings.
# assay-explanation: Toxicity liver stage against HepG2, at 10uM
# Format: cell-based
# Set-up: test concentration 10 uM, cell line HepG2-A16-CD81EGFP
# condition-label: human, HepG2-A16-CD81EGFP cells; read-out: INHIBITION
Respond with the bare value in %.

Below, 3 compounds whose answers are already recorded.
- compound: "CCN1CCC(N2C[C@H]3OC(=O)N(CCc4cccc(Cl)c4)[C@H]3C2)CC1"
  cytotoxicity at 10 µM [%]: -5.4
- compound: "O=C(NCc1ccccc1)[C@H]1C[C@H]2CN(C(=O)NC3CCCC3)C[C@@H]1O2"
  cytotoxicity at 10 µM [%]: 2.17
- compound: "CC(C)c1nc(C2CCCN(C(=O)c3nccn4ccnc34)C2)no1 (configuration not stated)"
  cytotoxicity at 10 µM [%]: -12.7

Input line: Which cytotoxicity at 10 µM value belongs to Cc1cccc(NC(=O)N2CCCn3cnc(CN4CCCC4)c3C2)c1 ?
Output line: -12.2

Input line: Which cytotoxicity at 10 µM value belongs to CN1CCS(=O)(=O)[C@@H]2CCN(C(=O)CC(C)(C)C)CC[C@@H]21 ?
Output line: 1.2

Input line: Which cytotoxicity at 10 µM value belongs to O=c1[nH]cc(N2CCOCC2)c(=O)[nH]1 ?
Output line: 6.36

Input line: Which cytotoxicity at 10 µM value belongs to O=C1[C@@H]2CC[C@@H](CN(C3CCOCC3)C2)N1Cc1cscn1 ?
Output line: -7.15

###

# assay-explanation: Toxicity liver stage against HepG2, at 10uM
# Type: cell-based
# Design: test concentration 10 uM, cell line HepG2-A16-CD81EGFP
# condition-label: human, HepG2-A16-CD81EGFP cells; read-out: INHIBITION
measured-metric: cytotoxicity at 10 µM (%)
Respond with the bare value in %.

Below, 6 compounds whose answers are already recorded.
- compound: "Cc1nn(C)c(N2CCCN(C)CC2)c1CNC(=O)CC1CCCC1"
  value: -7.43
- compound: "CC(C)(C)CN1CC(O)CN(C(=O)c2cccc(C(F)(F)F)c2)CC1=O (centres undefined)"
  value: 5.99
- compound: "Cc1ccc(CN2CCCC(c3nnc(CN4CCCC4)n3C)C2)s1 (centres undefined)"
  value: 0.9
- compound: "O=C(Cc1ccc2c(c1)OCCO2)NC1CCCCC1"
  value: -12.3
- compound: "c1cc(-c2noc(-c3cc(C4CC4)on3)n2)cc(N2CCCCC2)n1"
  value: 4.64
- compound: "Cc1cc(N(C)C)nc(N(C)Cc2csc(C)n2)n1"
  value: 7.06

Input line: Which cytotoxicity at 10 µM value belongs to O=C(O)C1(Oc2ccc3ccccc3c2)CCN(c2ccncc2)CC1 ?
Output line: 0.542

Input line: Which cytotoxicity at 10 µM value belongs to CC(C)CN1CC(C(=O)NCc2ccnc(-n3cccn3)c2)CC1=O (centres undefined) ?
Output line: -5.48

Input line: Which cytotoxicity at 10 µM value belongs to O=C1CC[C@@H](CN(Cc2ccncc2)Cc2nc(-c3cccs3)no2)N1 ?
Output line: -10.7

Input line: Which cytotoxicity at 10 µM value belongs to NC(=O)c1cn[nH]c1NC(=O)c1ccc2c(c1)OCO2 ?
Output line: 1.03

Input line: Which cytotoxicity at 10 µM value belongs to CCN1CCN(Cc2ccnc(-c3cccnc3)n2)CC1 ?
Output line: -5.23

Input line: Which cytotoxicity at 10 µM value belongs to Cc1ccc(-c2ccc(Cl)nn2)cc1S(N)(=O)=O ?
Output line: -12.3

Input line: Which cytotoxicity at 10 µM value belongs to CC(C)C1CN(C(=O)c2ccn(C)c(=O)c2)c2ccccc2N1 (centres undefined) ?
Output line: -6.01

Input line: Which cytotoxicity at 10 µM value belongs to COCCN1CC[C@@H]2O[C@H](COCc3csc(C)n3)CC[C@@H]21 ?
Output line: -76.7

Input line: Which cytotoxicity at 10 µM value belongs to O=C(CN1CCCC(Cn2cncn2)C1)Nc1cccnc1 (centres undefined) ?
Output line: 2.01

Input line: Which cytotoxicity at 10 µM value belongs to CCc1nc(C)c([C@H]2CN(C)C[C@@H]2C(=O)Nc2ccc3[nH]ncc3c2)[nH]1 ?
Output line: -1.67

Input line: Which cytotoxicity at 10 µM value belongs to Cc1cccc(-n2c(C)cc(C(=O)NS(C)(=O)=O)c2C)c1 ?
Output line: -4.08

Input line: Which cytotoxicity at 10 µM value belongs to CCn1cc(NC(=O)C2CCN(Cc3nc(C)c(C)o3)CC2)cn1 ?
Output line: 5.3

Input line: Which cytotoxicity at 10 µM value belongs to CC(=O)N1Cc2nccn2CC(CNC(=O)c2ccnnc2)C1 (centres undefined) ?
Output line: -138

Input line: Which cytotoxicity at 10 µM value belongs to Cc1ccc(C(=O)N2CCc3ncnc(C)c3CC2)cn1 ?
Output line: 9.75

Input line: Which cytotoxicity at 10 µM value belongs to CCc1noc(C(C)N2CCN(CCN3CCCC3=O)CC2)n1 (centres undefined) ?
Output line: -9.37

Input line: Which cytotoxicity at 10 µM value belongs to O=S(=O)(C1CC1)N1CCC2(CCCN(Cc3ccccn3)C2)C1 (centres undefined) ?
Output line: -0.336

Input line: Which cytotoxicity at 10 µM value belongs to COc1ccccc1CNC(=O)CNc1ccccc1C(C)=O ?
Output line: 4.7

Input line: Which cytotoxicity at 10 µM value belongs to COc1ccc2c(c1)CN(CC1CC1)C(=O)CCN2CC(C)(C)O ?
Output line: -13.9
